Biological target: IRAK1 (h) (Homo sapiens, UniProt P51617)
Construct: purchased Millipore
Sequence (P51617 whole entry): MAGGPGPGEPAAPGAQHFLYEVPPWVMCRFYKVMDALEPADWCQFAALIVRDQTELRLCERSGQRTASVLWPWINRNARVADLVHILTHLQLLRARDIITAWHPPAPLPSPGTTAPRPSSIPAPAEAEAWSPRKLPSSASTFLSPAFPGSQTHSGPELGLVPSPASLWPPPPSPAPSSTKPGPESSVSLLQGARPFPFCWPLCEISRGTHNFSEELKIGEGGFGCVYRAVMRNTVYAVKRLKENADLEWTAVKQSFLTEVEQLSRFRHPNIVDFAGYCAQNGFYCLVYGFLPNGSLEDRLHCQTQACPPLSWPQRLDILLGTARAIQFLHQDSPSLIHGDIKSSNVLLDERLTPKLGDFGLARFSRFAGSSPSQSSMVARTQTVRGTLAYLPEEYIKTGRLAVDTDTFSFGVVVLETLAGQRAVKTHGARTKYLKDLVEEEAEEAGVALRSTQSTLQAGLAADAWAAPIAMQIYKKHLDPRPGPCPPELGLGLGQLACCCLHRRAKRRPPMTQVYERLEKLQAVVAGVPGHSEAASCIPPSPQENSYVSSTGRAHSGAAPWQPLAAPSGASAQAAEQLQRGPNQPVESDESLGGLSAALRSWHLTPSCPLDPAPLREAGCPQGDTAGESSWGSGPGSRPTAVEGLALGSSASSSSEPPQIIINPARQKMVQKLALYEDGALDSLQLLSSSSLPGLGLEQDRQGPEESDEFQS
Experiment: Kinase Profiling Assay
Assay type: biochemical
Conditions: 100 μM
Provide the reported % activity of each item.
One number for each entry, in %.

Consider the following illustrative entries.
# PRIMARY_SEQUENCE, REPORTED_RESULT
measured = [
    ("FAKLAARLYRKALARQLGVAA [MMI-0300]", 95),
    ("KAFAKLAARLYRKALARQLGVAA [MMI-0400]", 93),
    ("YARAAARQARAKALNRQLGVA (Mammalian) [MMI-0200]", 101),
]

Now, please, on to the next sequence.
Query: Write down % activity measured for item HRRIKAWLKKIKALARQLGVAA (Mammalian) [MMI-0500]
Result: 5

* * *

Target: p70S6K (h) (Homo sapiens, UniProt P23443)
Construct: purchased Millipore
Sequence (P23443 whole entry): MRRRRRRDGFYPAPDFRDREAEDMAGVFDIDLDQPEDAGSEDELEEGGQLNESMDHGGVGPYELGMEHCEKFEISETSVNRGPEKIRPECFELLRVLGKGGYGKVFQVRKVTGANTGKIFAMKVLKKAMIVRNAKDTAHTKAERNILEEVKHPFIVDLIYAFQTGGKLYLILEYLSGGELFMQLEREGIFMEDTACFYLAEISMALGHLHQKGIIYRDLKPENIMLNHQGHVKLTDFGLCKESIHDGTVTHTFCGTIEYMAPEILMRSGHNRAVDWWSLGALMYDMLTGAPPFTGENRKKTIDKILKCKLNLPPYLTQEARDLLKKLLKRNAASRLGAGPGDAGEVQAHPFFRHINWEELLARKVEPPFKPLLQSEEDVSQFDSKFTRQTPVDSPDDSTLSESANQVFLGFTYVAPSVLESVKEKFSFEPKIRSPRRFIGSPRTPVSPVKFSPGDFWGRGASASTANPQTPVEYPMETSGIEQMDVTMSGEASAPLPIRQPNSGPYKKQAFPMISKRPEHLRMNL
Experiment: Kinase Profiling Assay
Format: biochemical
Settings: 100 μM
Consider the following sequences; for each one, report its % activity.
Give bare numbers, in %.

# PRIMARY_SEQUENCE, MEASUREMENT_UNITS, REPORTED_RESULT
measured = [
    ("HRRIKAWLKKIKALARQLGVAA (Mammalian) [MMI-0500]", "%", 3),
    ("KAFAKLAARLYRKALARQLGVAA [MMI-0400]", "%", 33),
    ("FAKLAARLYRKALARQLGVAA [MMI-0300]", "%", 35),
]

Query: Note % activity for the sequence shown: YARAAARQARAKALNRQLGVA (Mammalian) [MMI-0200]
Result: 84

* * *

Assign % activity to each entry below.
Target: ULK3 (h) (Homo sapiens)
Sequence (Q6PHR2 1-472): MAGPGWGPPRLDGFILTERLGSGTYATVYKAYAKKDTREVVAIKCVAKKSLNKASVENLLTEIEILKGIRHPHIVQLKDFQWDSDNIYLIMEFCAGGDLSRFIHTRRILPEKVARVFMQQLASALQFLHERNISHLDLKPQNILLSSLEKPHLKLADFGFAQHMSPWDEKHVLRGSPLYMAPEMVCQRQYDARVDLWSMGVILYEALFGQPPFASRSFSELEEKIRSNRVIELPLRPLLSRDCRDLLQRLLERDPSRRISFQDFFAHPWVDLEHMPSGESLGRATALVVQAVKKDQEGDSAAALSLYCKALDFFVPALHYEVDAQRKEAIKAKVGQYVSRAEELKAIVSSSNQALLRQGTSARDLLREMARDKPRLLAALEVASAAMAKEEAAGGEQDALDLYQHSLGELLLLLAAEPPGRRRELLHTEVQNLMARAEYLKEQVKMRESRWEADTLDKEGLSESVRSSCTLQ
Experiment: Kinase Profiling Assay
Format: biochemical
Conditions: 100 μM
One number for each entry, in %.

# PRIMARY_SEQUENCE, % activity / %
data = [
    ("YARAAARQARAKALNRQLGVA (Mammalian) [MMI-0200]", 164),
    ("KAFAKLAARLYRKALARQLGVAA [MMI-0400]", 147),
    ("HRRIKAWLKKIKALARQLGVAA (Mammalian) [MMI-0500]", 177),
]

Query: Given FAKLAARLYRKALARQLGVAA [MMI-0300] , respond with its % activity.
Result: 167

Taken from patent US10500249B2.
